Task for the reader: assign each of the following compounds its reported %max.
- STUDY_TARGET: Peroxisome proliferator-activated receptor gamma (Homo sapiens) (UniProt P37231)
- Sequence (P37231 whole entry, the tested form may be a part): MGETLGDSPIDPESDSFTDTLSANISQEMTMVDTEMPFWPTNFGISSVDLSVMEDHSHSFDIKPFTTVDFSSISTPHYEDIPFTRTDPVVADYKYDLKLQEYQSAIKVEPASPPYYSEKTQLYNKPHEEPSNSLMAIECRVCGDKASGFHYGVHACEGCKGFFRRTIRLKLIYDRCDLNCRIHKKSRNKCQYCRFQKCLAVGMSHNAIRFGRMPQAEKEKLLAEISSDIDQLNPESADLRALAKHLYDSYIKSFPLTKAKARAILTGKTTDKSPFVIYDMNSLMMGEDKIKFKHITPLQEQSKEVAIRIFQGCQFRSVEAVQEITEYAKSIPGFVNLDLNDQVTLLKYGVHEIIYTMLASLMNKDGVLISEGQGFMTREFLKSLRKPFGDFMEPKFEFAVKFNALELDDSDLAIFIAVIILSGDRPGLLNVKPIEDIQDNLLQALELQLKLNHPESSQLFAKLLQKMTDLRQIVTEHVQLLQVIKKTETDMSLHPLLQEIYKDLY
- ASSAY: Intrinsic activity at Gal4 fused PPARgamma LBD (unknown origin) expressed in African green monkey COS7 cells after 42 hrs by luciferase assay relative to pioglitazone
- Type: cell-based
- CONDITION_LABEL: COS-7
Response body: numeric value in %, unit text excluded.

Task: Which %max is listed for CCCc1nc2c(C)cc(-c3nc4ccccc4n3C)cc2n1Cc1ccc(-c2ccccc2C(=O)O)cc1 ?
Result: 50.9

Task: Look up %max for this compound: CCCc1nc2ccccc2n1Cc1ccc(-c2cccc(C(=O)O)c2)cc1
Result: 44.7

Task: # lookup: %max of CCCc1cc2ccccc2n1Cc1ccc(-c2ccccc2C#N)cc1
Result: 21.7

Task: Recorded %max of CCCc1nc2ccccc2n1Cc1ccc(-c2ccccc2C#N)cc1 , please.
Result: 51.3

Task: Which value of %max has been reported for CCCc1nc2ccccc2n1Cc1ccc(-c2ccc(C(=O)O)cc2)cc1 in the records?
Result: 84.1

Task: Requested read-out: %max. Entry: CCCCCCCc1nc2ccccc2n1Cc1ccc(-c2ccccc2C(N)=O)cc1
Result: 32.8

Task: GET /values?readout=%max&item= CCCc1cc2ccccc2n1Cc1ccc(-c2ccccc2C(=O)O)cc1
Result: 40

Task: Look at this compound and give its reported %max. CCCc1cc2ccccc2n1Cc1ccc(-c2ccccc2C(N)=O)cc1
Result: 11

Task: Give its %max value. Item: CCCc1nc2ccccc2n1Cc1ccc(-c2ccccc2C(=O)O)cc1
Result: 49.6

Task: Quick one: %max of CCCCCCc1nc2ccccc2n1Cc1ccc(-c2ccccc2C(=O)O)cc1 ?
Result: 75

Task: Return reported %max; argument: CCCCCc1nc2ccccc2n1Cc1ccc(-c2ccccc2C(=O)O)cc1
Result: 55.4

Task: Given the entry CCCCCCc1nc2ccccc2n1Cc1ccc(-c2ccccc2C(N)=O)cc1 , report its measured %max.
Result: 37.8

Task: Given CCCCCc1nc2ccccc2n1Cc1ccc(-c2ccccc2C(N)=O)cc1 , state its recorded %max.
Result: 16.2

Task: I'd like to know its %max. The compound in question is CCCCCCCc1nc2ccccc2n1Cc1ccc(-c2ccccc2C(=O)O)cc1
Result: 82.5

Task: Give the measured %max of CCCC1Sc2ccccc2N1Cc1ccc(-c2ccccc2C(=O)O)cc1 (stereo unspecified) .
Result: 57.4

Task: So what does the record say about %max for CCCc1nc2ccccc2n1Cc1ccc(-c2ccccc2C(N)=O)cc1 ?
Result: 21.1

* * *

Consider the following compounds; for each one, report its EC50.
- STUDY_TARGET: Peroxisome proliferator-activated receptor gamma (Homo sapiens)
- ASSAY: Transactivation at Gal4 fused PPARgamma LBD (unknown origin) expressed in African green monkey COS7 cells after 42 hrs by luciferase assay
Write down the numeric answer in µM and omit the unit.

Task: Tell me the measured EC50 of CCCCCc1nc2ccccc2n1Cc1ccc(-c2ccccc2C(N)=O)cc1 , please.
Result: 3.9

Task: Give its EC50 value. Item: CCCCCCCc1nc2ccccc2n1Cc1ccc(-c2ccccc2C(N)=O)cc1
Result: 0.84

Task: I'd like to know its EC50. The compound in question is CCCc1nc2ccccc2n1Cc1ccc(-c2ccc(C(=O)O)cc2)cc1
Result: 1.88

Task: Returns the measured EC50 for the input compound. Input: CCCc1cc2ccccc2n1Cc1ccc(-c2ccccc2C(=O)O)cc1
Result: 1.86
